SYSTEM_TESTED: human PAD4 (Homo sapiens (Human))
Sequence (Q9UM07 2-663): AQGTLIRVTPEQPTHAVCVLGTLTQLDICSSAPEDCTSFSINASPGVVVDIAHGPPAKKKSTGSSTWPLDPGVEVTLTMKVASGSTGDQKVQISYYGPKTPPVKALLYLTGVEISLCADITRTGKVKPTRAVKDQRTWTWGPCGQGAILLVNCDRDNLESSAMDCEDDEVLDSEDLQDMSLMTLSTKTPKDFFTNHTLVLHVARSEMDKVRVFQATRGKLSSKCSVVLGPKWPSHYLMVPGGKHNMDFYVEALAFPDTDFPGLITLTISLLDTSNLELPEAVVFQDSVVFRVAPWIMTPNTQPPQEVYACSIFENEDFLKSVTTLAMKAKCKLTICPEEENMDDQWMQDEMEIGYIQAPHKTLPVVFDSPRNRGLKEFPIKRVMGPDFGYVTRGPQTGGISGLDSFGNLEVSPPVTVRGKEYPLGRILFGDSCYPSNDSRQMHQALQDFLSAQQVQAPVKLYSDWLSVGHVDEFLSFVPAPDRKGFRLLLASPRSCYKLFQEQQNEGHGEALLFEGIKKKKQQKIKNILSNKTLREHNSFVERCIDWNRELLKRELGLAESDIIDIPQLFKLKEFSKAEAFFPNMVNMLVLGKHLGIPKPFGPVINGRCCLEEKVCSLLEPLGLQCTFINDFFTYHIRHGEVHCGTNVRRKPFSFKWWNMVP
ASSAY: In Vitro PAD4 BAEE Biochemical Assay
MEASUREMENT_CONDITIONS: human PAD4, BAEE substrate; 5 nM PAD4, 2 mM calcium chloride, 3 mM BAEE; geometric mean of multiple experiments
Excerpt: The PCR product was ligated into linearized pET-SUMO vector (Invitrogen, Carlsbad, CA), which is part of the Champion™ pET SUMO Protein Expression System. […] The enzymatic activity of human PAD4 was monitored in a biochemical assay in the presence or absence of compounds using the small peptidyl arginine mimic BAEE (Nα-Benzoyl-L-arginine ethyl ester hydrochloride) as substrate. […] Levels of ammonia were monitored by using an amine coupling reaction and were indicative of PAD4 enzymatic activity. […]
pIC50: −log10 of the molar value.
Quick rule for you: pIC50 at 7 or higher means criterion met, lower means criterion not met.

- COMPOUND: "COc1cc(C(=O)N2CCC[C@@H](N)C2)cc2nc(-c3cc4ccc(N5CCCS5(=O)=O)nc4n3CC3CC3)n(C)c12"
  ASSIGNED_LABEL: "criterion not met"
- COMPOUND: "COc1cc(C(=O)N2C[C@H](N)CCN2C)cc2nc(-c3cc4ccc([C@@H](C)NC(=O)c5ncccn5)nc4n3CC3CC3)n(C)c12"
  ASSIGNED_LABEL: "criterion met"
- COMPOUND: "COc1cc(C(=O)N2CC[C@@H]3OCCN[C@@H]3C2)cc2nc(-c3cc4ccc(N(C(F)F)S(C)(=O)=O)nc4n3CC3CC3)n(C3CC3)c12"
  ASSIGNED_LABEL: "criterion not met"

Query string: Exam item: decide whether the reported pIC50 for COc1cc(C(=O)N2CCC[C@@H](N)C2)cc2nc(-c3cc4ccc(N(C)S(C)(=O)=O)cc4n3CC3CC3)n(C)c12 is at least 7.
Result string: criterion not met

Query string: Exam item: decide whether the reported pIC50 for COc1cc(C(=O)N2CC3CCC3(N)C2)cc2nc(-c3cc4ccc(N(C(F)F)S(C)(=O)=O)nc4n3CC3CC3)n(C)c12 (stereo not drawn) is at least 7.
Result string: criterion not met

// provenance: patent US11878965B2
